target: human AT1R (Homo sapiens); experiment: IP1 accumulation assay (IP1 G-protein assay), human AT1R; format: cell-based; settings: read-out: EC50
Sequence (P30556 whole entry): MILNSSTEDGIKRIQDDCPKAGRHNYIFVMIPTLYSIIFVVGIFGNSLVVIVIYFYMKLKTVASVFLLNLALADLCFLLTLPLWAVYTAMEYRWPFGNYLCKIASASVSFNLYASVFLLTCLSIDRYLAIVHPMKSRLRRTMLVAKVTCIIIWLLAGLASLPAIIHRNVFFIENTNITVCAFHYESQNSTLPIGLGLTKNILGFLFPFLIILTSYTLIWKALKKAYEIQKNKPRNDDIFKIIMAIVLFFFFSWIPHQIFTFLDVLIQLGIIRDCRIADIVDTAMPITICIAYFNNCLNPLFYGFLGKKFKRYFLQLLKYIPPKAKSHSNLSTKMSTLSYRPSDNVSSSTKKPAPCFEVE
Where a SMILES comes first, the peptide text is derived from it. [ ]: non-standard residue; d: D form. Ac6c = NC1(C(=O)O)CCCCC1; Ac5c = NC1(C(=O)O)CCCC1; Sar = CNCC(=O)O
The entries below are paired with their reported EC50.

Previously resolved entries follow.
MOLECULE	EC50
CNCC(=O)N[C@@H](CCCNC(=N)N)C(=O)N[C@H](C(=O)N[C@@H](Cc1ccc(O)cc1)C(=O)NC1(C(=O)N[C@@H](Cc2c[nH]cn2)C(=O)N2CCC[C@H]2C(=O)N[C@H](C(=O)O)C(C)C)CCCCC1)C(C)C [SEQ ID NO: 13, Sar-Arg-Val-Tyr-cyHex-His-Pro-Val] (H-[Sar]RVY[Ac6c]HPV-OH)	> 1.3 nM
CNCC(=O)N[C@@H](CCCNC(=N)N)C(=O)N[C@H](C(=O)N[C@@H](Cc1ccc(O)cc1)C(=O)NC1(C(=O)N[C@@H](Cc2c[nH]cn2)C(=O)N2CCC[C@H]2C(=O)N[C@H](C(=O)O)[C@@H](C)O)CCCC1)C(C)C [SEQ ID NO: 21, Sar-Arg-Val-Tyr-cyPen-His-Pro-Thr] (H-[Sar]RVY[Ac5c]HPT-OH)	> 1.3 nM

Input line: For CNCC(=O)N[C@@H](CCCNC(=N)N)C(=O)N[C@H](C(=O)N[C@@H](Cc1ccc(O)cc1)C(=O)NC1(C(=O)N[C@@H](Cc2c[nH]cn2)C(=O)N2CCC[C@H]2C(=O)N2CCC[C@H]2C(=O)O)CCCCC1)C(C)C [SEQ ID NO: 39, Sar-Arg-Val-Tyr-cyHex-His-Pro-Pro] (H-[Sar]RVY[Ac6c]HPP-OH) , what is its reported EC50?
Output line: > 1.3 nM

---

target: human AT1R (Homo sapiens); experiment: IP1 accumulation assay (IP1 G-protein assay), human AT1R; assay type: cell-based; settings: read-out: Span (relative to hAngII)
Where a SMILES comes first, the peptide text is derived from it. [ ]: non-standard residue; d: D form. Tle = CC(C)(C)[C@H](N)C(=O)O; Ac6c = NC1(C(=O)O)CCCCC1; Sar = CNCC(=O)O
The entries below are paired with their reported Emax.

Previously resolved entries follow.
MOLECULE	Emax
CC[C@H](C)[C@H](NC(=O)[C@@H]1CCCN1C(=O)[C@H](Cc1c[nH]cn1)NC(=O)[C@@H]1CCCN1C(=O)[C@H](Cc1ccc(O)cc1)NC(=O)[C@@H](NC(=O)[C@H](CCCNC(=N)N)NC(=O)CNC)C(C)C)C(=O)O [SEQ ID NO: 4, Sar-Arg-Val-Tyr-Pro-His-Pro-Ile] (H-[Sar]RVYPHPI-OH; N-terminus and C-terminus assumed)	< 103%
CNCC(=O)N[C@@H](CCCNC(=N)N)C(=O)N[C@H](C(=O)N[C@@H](Cc1ccc(O)cc1)C(=O)N1CCC[C@H]1C(=O)N[C@@H](Cc1c[nH]cn1)C(=O)N1CCC[C@H]1C(=O)N[C@@H](CCSC)C(=O)O)C(C)C [SEQ ID NO: 9, Sar-Arg-Val-Tyr-Pro-His-Pro-Met] (H-[Sar]RVYPHPM-OH; N-terminus and C-terminus assumed)	< 103%

Input line: For CNCC(=O)N[C@@H](CCCNC(=N)N)C(=O)N[C@H](C(=O)N[C@@H](Cc1ccc(O)cc1)C(=O)NC1(C(=O)N[C@@H](Cc2c[nH]cn2)C(=O)N2CCC[C@H]2C(=O)N[C@H](C(=O)O)C(C)(C)C)CCCCC1)C(C)C [SEQ ID NO: 56, Sar-Arg-Val-Tyr-cyHex-His-Pro-AA02] (H-[Sar]RVY[Ac6c]HP[Tle]-OH) , what is its reported Emax?
Output line: < 103%
